Listed binders paired with reported pKd
# study_target: PARD3_3, Q8TEW0
# Sequence (Q8TEW0 582-685): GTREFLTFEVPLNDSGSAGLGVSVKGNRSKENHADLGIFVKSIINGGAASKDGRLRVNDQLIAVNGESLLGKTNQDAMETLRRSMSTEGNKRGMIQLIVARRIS
# experiment_description: holdup assay
# Parameters: key: below the threshold = too weak to quantify, mostly under pKd 3.1 to 4
# measurement_parameters: plain residues with an end cap or a label only (N-terminal biotin on a linker: ttds)
measurement_label: pKd

{"columns": ["binder", "measurement_label", "test_value"],
 "data": [
  ["SVWLRKETRV [CYSLTR2, Q9NS75]", "pKd", 3.46],
  ["RSLEEEESQL [GRASP, Q7Z6J2]", "pKd", 4.13],
  ["SSRTRRETQL [HPV16-E6, P03126]", "pKd", 3.65],
  ["STLTIFETAL [ABCC4, O15439]", "pKd", 4.31]
]}
